Sourced from patent US7084140B2

# Ki per entry for NK1-receptor (substance P-receptor) (Homo sapiens, UniProt P25103)

MOLECULE	Ki / nM
COc1ccc(C(C(=O)N(C)CCc2cc(C(F)(F)F)cc(C(F)(F)F)c2)N2CCN(C(C)C)CC2)cc1OC (stereo not drawn)	5.7
CN1CCCN(C(C(=O)N(C)CCc2cc(C(F)(F)F)cc(C(F)(F)F)c2)c2ccccc2)CC1 (stereo not drawn)	1.4
CN(CCc1cc(C(F)(F)F)cc(C(F)(F)F)c1)C(=O)C(c1ccccc1)N1CCN(CC(=O)N2CCCC2)CC1 (stereo not drawn)	3.8
CN(CCc1cc(C(F)(F)F)cc(C(F)(F)F)c1)C(=O)C(c1ccccc1)N1CCC(NC2CCCC2)CC1 (stereo not drawn)	1.17
CN(CCc1cc(C(F)(F)F)cc(C(F)(F)F)c1)C(=O)[C@H](c1ccccc1)N1CCNCC1	0.44
COCCN1CCN(C(C(=O)N(C)CCc2cc(C(F)(F)F)cc(C(F)(F)F)c2)c2ccccc2)CC1 (stereo not drawn)	1.8
CNC1CCN(C(C(=O)N(C)CCc2cc(C(F)(F)F)cc(C(F)(F)F)c2)c2ccccc2)CC1 (stereo not drawn)	0.96
C#CCN1CCN(C(C(=O)N(C)CCc2cc(C(F)(F)F)cc(C(F)(F)F)c2)c2ccccc2)CC1 (stereo not drawn)	6
CN(CCc1cc(C(F)(F)F)cc(C(F)(F)F)c1)C(=O)C(c1ccccc1)N1CCC(O)CC1 (stereo not drawn)	2.2
C=CCN1CCN(C(C(=O)N(C)CCc2cc(C(F)(F)F)cc(C(F)(F)F)c2)c2ccccc2)CC1 (stereo not drawn)	2.2
CN(CCc1cc(C(F)(F)F)cc(C(F)(F)F)c1)C(=O)C(c1ccccc1)N1CCN(CCO)CC1 (stereo not drawn)	1.6
CCCN1CCN(C(C(=O)N(C)CCc2cc(C(F)(F)F)cc(C(F)(F)F)c2)c2ccccc2)CC1 (stereo not drawn)	1.4
CN1CCN(C2CCN(C(C(=O)N(C)CCc3cc(C(F)(F)F)cc(C(F)(F)F)c3)c3ccccc3)CC2)CC1 (stereo not drawn)	1.8
CN(CCc1cc(C(F)(F)F)cc(C(F)(F)F)c1)C(=O)C(c1ccccc1)N1CCC(N(CCO)CCO)CC1 (stereo not drawn)	1.25
CC(C)N1CCN(C(C(=O)N(C)CCc2cc(C(F)(F)F)cc(C(F)(F)F)c2)c2ccccc2)CC1 (stereo not drawn) [Example 74]	1.5
